# T1/2 values compiled below
# TARGET_ENTITY: T1, human CCL2 (MCP1) - wild type (wt) (human, UniProt P13500 24-99)
# T1 construct: Made in-house or bought (R&D Systems 279-MC), depending on the assay; can form dimers; also called wt human CCL2; WT human CCL2
# ASSAY_NOTES: SPR T200, 37 C, antibody captured, 1:1 model
Reply numerically in h, unit not repeated.

Please review the following examples before continuing.
1G9 (antibody, IgG1, V domains shown, also called CCL2-0010) VH: QSLEESGGDLVKPGASLTLTCKASGIDFSLYSYMCWVRQAPGKGLEWIACVDAGASGSTYYASWAKGRFTISKTSSTTVTLQMTSLTAADTATYFCARGILYYTWPYPAGAIDAFDSWGPGTLVTVSS VL: AYDMTQTPASVSEPVGGTVTIKCQASESISNYLSWYQQKPGQPPKLLIYKASTLASGVPSRFKGSGSGTEYTVTISGVQSDDAATYYCQQSYSSSNVFNTFGGGTEVVVK: 2.95
2F6 (antibody, IgG1, V domains shown, also called CCL2-0014) VH: QSLEESGGGLVQPEGSLTLTCTASGFSFNNNYYMCWVRQAPGKGLEWIGCISTDDSNTHYASWAQGRFTISKASSTALTLQVAGLTVADMATYFCARDAHFTSYGYGFDLWGPGTLVTVSS VL: DIVMTQTPASVSAAVGGTVSINCRASEDIENLVAWYQQKPGQPPKLLIYQASKLASGVPSRFKGSGSGAEFTLTIGDLESADAATYYCQGDYGSGWIMYSFGGGTDLVVK: 0.867
Humanized 11K2 (=11K2) (antibody, IgG1, V domains shown, IgG1 with kappa light chain; also called CCL2-0002; humanized 11k2 IgG1) VH: QVQLVQSGAEVKKPGSSVKVSCKASGLTISDTYMHWVRQAPGQGLEWMGRIDPANGNTKFDPKFQGRVTITADTSTSTAYMELSSLRSEDTAVYYCARGVFGFFDYWGQGTTVTVSS VL: DIQMTQSPSSLSASVGDRVTITCKATEDIYNRLAWYQQKPGKAPKLLISGATSLETGVPSRFSGSGSGTDYTLTISSLQPEDFATYYCQQFWSAPYTFGGGTKVEIK: 1.97

Please find the next binder below.
Consider the binder 1A4 (antibody, V domains shown, which format stood in each assay is not always stated; also called CCL2-0008) VH: QSLEESGGDLVKPGASLTLTCTASELDFYWICWVRQAPGKGLEWIACIGAGSSGSTYYASWAKGRFTVSKTSSTTVTLQMTSLTAADTATYFCARTGTEFTYYSLWGPGTLVTVSS VL: ALVMTQTPSSVSAAVGGTVTINCQASQSVYNNNMAWYQQKPGQPPKLLIYTASSLASGVPSHFRGSGSGTQFTLTISDLESDDAATYYCAGYKSYSNDEYGFGGGTEVVVK . State its measured T1/2. 1.67
